Property: pH for clear sample; scope: individual compounds
# Experiment Description: Ability of polymer counter ion pair to solubilise lipid: visual clarity of polymer counter ion/PL mixtures as pH is adjusted
# Settings: SMA 1:1 50 mg, DLPC 20 mg (2.5:1), 2 ml; amine HCl [% w/w]: isopentylamine 3 mg [0.15], isobutylamine 9 mg [0.45] (clears on standing 3 days), tyramine 5-6 mg [0.25-0.3], diphenhydramine 2.5-4 mg [0.13-0.2], phenylalanine ethyl ester 10 mg [0.5], tolazoline 5 mg [0.25], naphazoline 5 mg; start pH 7 or 8
Counter-ions that a name gives are not always drawn.

Previously resolved entries follow.
Compound	Quantity	Reading
CC(C)CN [Isobutylamine]	pH for clear sample	8, clears
c1ccc(CC2=NCCN2)cc1 [2-Benzyl-2-imidazoline (tolazoline), 2-benzyl-2-imidazoline, reference compound]	pH for clear sample	7-8,
CC(C)CCN [Isopentylamine, Isopentyl amine]	pH for clear sample	7, Clear
c1ccc2c(CC3=NCCN3)cccc2c1 [Naphazoline, naphazoline hydrochloride, reference compound]	pH for clear sample	8, Clear

// next item, pH for clear sample requested
Req: Give reported pH for clear sample value for CCOC(=O)[C@@H](N)Cc1ccccc1.Cl [Phenylalanine ethyl ester]
Resp: 8, Clears

====

# Experiment Description: Stability of the mixtures after 2-4 mths at 4° C.
# Type: physicochemical
# Set-up: key: S-stable; PS—partially stable; NS—not stable
# Settings: SMA 1:1 50 mg, DLPC 20 mg, 2 ml; amine HCl: isopentylamine 3 mg, isobutylamine 9 mg, tyramine 5-6 mg, diphenhydramine 2.5-4 mg, phenylalanine ethyl ester 10 mg, tolazoline 5 mg, naphazoline 8 mg total
Counter-ions that a name gives are not always drawn.
Quantity: Stability* After 2-4 mths + at 4° C.

Previously resolved entries follow.
Molecule	Stability* After 2-4 mths + at 4° C.
c1ccc2c(CC3=NCCN3)cccc2c1 [Naphazoline, naphazoline hydrochloride, reference compound]	PS
NCCc1ccc(O)cc1	S
CCOC(=O)[C@@H](N)Cc1ccccc1.Cl	PS
c1ccc(CC2=NCCN2)cc1 [2-Benzyl-2-imidazoline (tolazoline), 2-benzyl-2-imidazoline, reference compound]	S
CC(C)CN	S

Req: Give reported Stability* After 2-4 mths + at 4° C. value for CC(C)CCN
Resp: NS

====

# Experiment Description: Ability of polymer counter ion pair to solubilise lipid: visual clarity of polymer counter ion/PL mixtures as pH is adjusted
# Settings: hydrochloride salts as cationic counter ions, SMA 1:1
Quantity: ion pairing with SMA 1:1 leading to formation of SMA/PL macromolecular assemblies

Previously resolved entries follow.
Compound	Reading
N[C@@H](Cc1ccc(O)c(O)c1)C(=O)O [L-dopa, reference compound]	failed
NC[C@H](O)c1ccc(O)c(O)c1 [L-norepinephrine, reference compound]	failed
NCC(O)c1ccc(O)cc1 (stereo not shown)	failed
NCCc1ccc(O)c(O)c1 [dopamine, reference compound]	failed
COc1cc(C(O)CN)ccc1O (stereo not shown)	failed

Req: Give reported ion pairing with SMA 1:1 leading to formation of SMA/PL macromolecular assemblies value for CCOC(=O)c1ccc(N)cc1 [benzocaine, reference compound]
Resp: failed

Req: Give reported ion pairing with SMA 1:1 leading to formation of SMA/PL macromolecular assemblies value for Nc1ccc(C(=O)O)cc1
Resp: failed
